# Test system: COLO 205 colon
# Protocol text: NCI tumour cell line growth inhibition, 48 h
Please provide measured TGI for the entries that follow.
Response body: numeric value in µM, unit text excluded.

Name the recorded TGI for CCCCn1c(=O)c2c(nc3n2CCCN3CCc2ccc(OCC(=O)NCCN(CC)CC)cc2)n(CCCC)c1=O . 7.38

Query: TGI; subject: COC(CN1C=C(Sc2ccccc2)CC1)OC 47.4

Record request: TGI value, item CN(C)CCCN1c2ccccc2CCc2ccc([N+](=O)[O-])cc21 32

I would be grateful if you could share the reported TGI for Nc1nc(Cl)c(N)c(NCC2(CO)CC(CCCc3ccccc3)C2)n1 (stereo not drawn) . 45.6

Which TGI value is on record for CCC1(O)C(=O)OCc2c1cc1n(c2=O)Cc2cc3cc(N)ccc3nc2-1 (stereo not drawn) ? 7.25

I have this molecule here, Cc1ccc(S(=O)(=O)NCCSCCSCCNS(=O)(=O)c2ccc(C)cc2)cc1 , and I need its recorded TGI. 41.2

What value of measured TGI is listed for CN(C)CC1CCCC1=O (stereo not drawn) ? 1.84

I would be grateful if you could share the reported TGI for N#Cc1ccc(N=Cc2c([O-])ccc3ccccc23)cc1.[C-]#[O+].[C-]#[O+].[Ir] . 4

Endpoint output: TGI of Nc1ccccc1SCc1csc(-c2ccc(Cl)cc2)n1 . Value? 34.6

Name the recorded TGI for O=C(Oc1cccnc1)c1ccsc1Nc1ccnc(C(F)(F)F)c1 . 24.6

Need TGI, item Cc1csc2nc(-c3ccc(Cl)c([N+](=O)[O-])c3)c(/C=N/N=C(N)N)n12 2.37

Quick check: TGI of Cc1ccc(/C=C2\CCCC(CN3CCCCC3)C2=O)cc1 (stereo not drawn) ? 3.25

GET /values?readout=TGI&item= CN(CCCNC(=O)c1nn(-c2ccc(Cl)cc2Cl)c2c1Cc1ccccc1-2)CCCNC(=O)c1nn(-c2ccc(Cl)cc2Cl)c2c1Cc1ccccc1-2 3.26

Look up TGI for this molecule: C/C=C(\C)c1cc(O)c(C)c2c1Oc1cc(O)c(Cl)c(C)c1C(=O)O2 49.3

* * *

Give measured TGI for each item. Keep answers brief.
# System: OVCAR-5 ovarian
# Protocol text: NCI tumour cell line growth inhibition, 48 h

Given the compound Cc1ccc(N=Nc2c(O)c(C(=O)Nc3ccccc3)cc3ccccc23)c([N+](=O)[O-])c1 , what is its reported TGI? > 100 µM

Given COC(=O)C1=C(OC(=O)c2ccccc2)C(C(=O)OC)[C@]2(O)[C@@H](C(=O)OC)[C@H]1C[C@@H](c1ccccc1)[C@@H]2C(=O)OC (some centres undefined) , state its recorded TGI. 73.9 µM

I have this compound here, Cc1cc(N(CCC#N)CCC#N)ccc1/C=C1N=C(/C=C\c2ccccc2)N(c2ccc(Cl)cc2)C\1=O , and I need its recorded TGI. > 100 µM

# TGI lookup, item COc1nc(N)c(N=CC(OC(C)=O)C(OC(C)=O)C(COC(C)=O)OC(C)=O)c(=O)n1C (centres undefined) > 100 µM

What does the record list as TGI for O=C(O)/C(Cl)=C(\Cl)C(=O)Nc1ccc(Cl)c(Cl)c1Cl ? 32.1 µM

I'd like to know its TGI. The compound in question is COc1ccc2oc(=N)c(C(=O)Nc3ccccn3)cc2c1 > 100 µM

TGI for Brc1c(C#CCC2CCCCC2)ccc(C#CCC2CCCCC2)c1Br ? > 100 µM

Which measured TGI value corresponds to O=C(Nc1cccc(Nc2ncc(Br)c(NCCc3cnc[nH]3)n2)c1)N1CCCC1 ? 73.1 µM

Reported TGI, compound C[CH2][Pb]([CH2]C)([CH2]C)[O]C(=O)c1ccc2ccccc2n1 : ____ > 10 µM
